Consider the following molecules; for each one, report its selectivity ratio.
Experiment: Selectivity index, ratio of IC50 for rat L6 cells to IC50 for erythrocytic stage of chloroquine-resistant Plasmodium falciparum IndoChina W2
Type: toxicity, cell-based
Details: read-out: Ratio IC50
Provide a numeric answer; units are not to be included.

# input For the molecule shown here, C[C@H]1[C@@H](O)O[C@@H]2O[C@@]3(C)CC[C@H]4[C@H](C)CC[C@@H]1[C@@]24OO3 (mixture of isomers) [ARTENIMOL] , give the reported selectivity ratio.
# output 243

# input Would you mind telling me what selectivity ratio value was observed for O=C(N[C@@H](c1ccccc1)[C@@H](O)C(=O)NCCNc1ccnc2cc(Cl)ccc12)c1ccccc1 ?
# output 27

# input Can you share its selectivity ratio? I mean this molecule: CC(=O)O[C@@H](C(=O)OCCNc1ccnc2cc(Cl)ccc12)[C@@H](NC(=O)c1ccccc1)c1ccccc1
# output 114

# input Given O=C(N[C@@H](c1ccccc1)[C@@H](O)C(=O)NCc1cn(CCNc2ccnc3cc(Cl)ccc23)nn1)c1ccccc1 , state its recorded selectivity ratio.
# output 31.6

# input Fill blank: measured selectivity ratio of the molecule CC(=O)O[C@@H](C(=O)O[C@@H]1O[C@@H]2O[C@@]3(C)CC[C@H]4[C@H](C)CC[C@@H]([C@H]1C)[C@@]24OO3)[C@@H](NC(=O)c1ccccc1)c1ccccc1 is ____.
# output 166

# input Form field: reported selectivity ratio of O=C(N[C@@H](c1ccccc1)[C@@H](O)C(=O)NCCCNc1ccnc2cc(Cl)ccc12)c1ccccc1
# output 59

# input GET /values?readout=selectivity ratio&item= CC(=O)O[C@@H](C(=O)OCCCNc1ccnc2cc(Cl)ccc12)[C@@H](NC(=O)c1ccccc1)c1ccccc1
# output 151

# input Consider the molecule [N-]=[N+]=NCCCNc1ccnc2cc(Cl)ccc12 and give its measured selectivity ratio.
# output 55.8

# input Tell me the measured selectivity ratio of OCc1cccc(Nc2ccnc3cc(Cl)ccc23)c1 , please.
# output 70.4

# input Quick check: selectivity ratio of O=C(N[C@@H](c1ccccc1)[C@@H](O)C(=O)NCc1cn(CCCNc2ccnc3cc(Cl)ccc23)nn1)c1ccccc1 ?
# output 52.2

# input Fill blank: measured selectivity ratio of the molecule O=C(N[C@@H](c1ccccc1)[C@@H](O)C(=O)NCc1cn(Cc2ccccc2Nc2ccnc3cc(Cl)ccc23)nn1)c1ccccc1 is ____.
# output 28.6

# input So what does the record say about selectivity ratio for O=C(N[C@@H](c1ccccc1)[C@@H](O)C(=O)NCc1cn(Cc2cccc(Nc3ccnc4cc(Cl)ccc34)c2)nn1)c1ccccc1 ?
# output 242

# input Form field: reported selectivity ratio of C[C@H]1[C@H](OC(=O)[C@H](O)[C@@H](NC(=O)c2ccccc2)c2ccccc2)O[C@@H]2O[C@@]3(C)CC[C@H]4[C@H](C)CC[C@@H]1[C@@]24OO3
# output 206

# input // lookup selectivity ratio for [N-]=[N+]=NCc1cccc(Nc2ccnc3cc(Cl)ccc23)c1
# output 139

----------
Test system: L6
Assay: Cytotoxicity against rat L6 cells after 70 hrs by Alamar Blue assay
Assay type: cell-based
Conditions: L6, 70 h
pIC50: −log10 of the molar value.
Returns Satisfied if the recorded pIC50 is greater than or equal to 5, and Not satisfied otherwise.

# input Tell me whether pIC50 is at least 5 here: O=C(N[C@@H](c1ccccc1)[C@@H](O)C(=O)NCCNc1ccnc2cc(Cl)ccc12)c1ccccc1
# output Not satisfied

# input Entry O=C(N[C@@H](c1ccccc1)[C@@H](O)C(=O)NCc1cn(Cc2cccc(Nc3ccnc4cc(Cl)ccc34)c2)nn1)c1ccccc1 : is its pIC50 no less than 5?
# output Not satisfied

# input Entry O=C(N[C@@H](c1ccccc1)[C@@H](O)C(=O)NCc1cn(Cc2ccccc2Nc2ccnc3cc(Cl)ccc23)nn1)c1ccccc1 : is its pIC50 no less than 5?
# output Not satisfied

# input For this compound, is measured pIC50 5 or higher? CC(=O)O[C@@H](C(=O)O)[C@@H](NC(=O)c1ccccc1)c1ccccc1
# output Not satisfied

# input Exam item: decide whether the reported pIC50 for C[C@H]1[C@@H](O)O[C@@H]2O[C@@]3(C)CC[C@H]4[C@H](C)CC[C@@H]1[C@@]24OO3 (mixture of isomers) [ARTENIMOL] is at least 5.
# output Satisfied

# input Identify whether the reported pIC50 of the following compound is 5 or greater: COc1cc([C@@H]2c3cc4c(cc3[C@H](O)[C@H]3COC(=O)[C@H]23)OCO4)cc(OC)c1OC [PODOFILOX]
# output Satisfied

# input Exam item: decide whether the reported pIC50 for O=C(N[C@@H](c1ccccc1)[C@@H](O)C(=O)NCc1cn(CCCNc2ccnc3cc(Cl)ccc23)nn1)c1ccccc1 is at least 5.
# output Not satisfied

# input Form field: pIC50 at least 5? Entry: CC(=O)O[C@@H](C(=O)O[C@@H]1O[C@@H]2O[C@@]3(C)CC[C@H]4[C@H](C)CC[C@@H]([C@H]1C)[C@@]24OO3)[C@@H](NC(=O)c1ccccc1)c1ccccc1
# output Satisfied

# input Answer whether pIC50 of CC(=O)O[C@@H](C(=O)OCCNc1ccnc2cc(Cl)ccc12)[C@@H](NC(=O)c1ccccc1)c1ccccc1 is greater than or equal to 5.
# output Not satisfied

# input Can OCc1cccc(Nc2ccnc3cc(Cl)ccc23)c1 be said to have pIC50 at or above 5?
# output Not satisfied

# input Is reported pIC50 greater than or equal to 5 here: C[C@H]1[C@H](OC(=O)[C@H](O)[C@@H](NC(=O)c2ccccc2)c2ccccc2)O[C@@H]2O[C@@]3(C)CC[C@H]4[C@H](C)CC[C@@H]1[C@@]24OO3
# output Satisfied

# input Could you tell me if the measured pIC50 of O=C(N[C@@H](c1ccccc1)[C@@H](O)C(=O)NCc1cn(CCNc2ccnc3cc(Cl)ccc23)nn1)c1ccccc1 reaches 5 or more?
# output Not satisfied

# input Reported pIC50 at or above 5? O=C(N[C@@H](c1ccccc1)[C@@H](O)C(=O)O)c1ccccc1
# output Not satisfied

# input Evaluate O=C(N[C@@H](c1ccccc1)[C@@H](O)C(=O)NCCCNc1ccnc2cc(Cl)ccc12)c1ccccc1 : pIC50 at minimum 5?
# output Not satisfied

# input For this compound, is measured pIC50 5 or higher? [N-]=[N+]=NCc1cccc(Nc2ccnc3cc(Cl)ccc23)c1
# output Not satisfied

# input Check this compound for pIC50 at or above 5: CC(=O)O[C@@H](C(=O)OCCCNc1ccnc2cc(Cl)ccc12)[C@@H](NC(=O)c1ccccc1)c1ccccc1
# output Not satisfied

----------
System: Plasmodium falciparum
Experiment: Antiplasmodial activity against erythrocytic stage of chloroquine-resistant Plasmodium falciparum IndoChina W2 infected in human A positive RBC after 48 hrs by [3H]hypoxanthine incorporation assay
Assay type: functional, organism-based
I'd be grateful if you could share measured log10 IC50 for these entries.
Hello, just confirming the data are log10 of IC50 with units of nM.

# input Form entry - test system: Plasmodium falciparum; read-out: log10 IC50; molecule: O=C(N[C@@H](c1ccccc1)[C@@H](O)C(=O)NCCNc1ccnc2cc(Cl)ccc12)c1ccccc1
# output 2.75

# input Identify the measured log10 IC50 of C[C@H]1[C@H](OC(=O)[C@H](O)[C@@H](NC(=O)c2ccccc2)c2ccccc2)O[C@@H]2O[C@@]3(C)CC[C@H]4[C@H](C)CC[C@@H]1[C@@]24OO3 for Plasmodium falciparum.
# output 0.70

# input # query: log10 IC50 | item O=C(N[C@@H](c1ccccc1)[C@@H](O)C(=O)NCc1cn(Cc2cccc(Nc3ccnc4cc(Cl)ccc34)c2)nn1)c1ccccc1 | system: Plasmodium falciparum
# output 2.45

# input What is its log10 IC50 for Plasmodium falciparum? Entry: OCc1cccc(Nc2ccnc3cc(Cl)ccc23)c1
# output 2.48

# input Form field: log10 IC50 recorded for CC(=O)O[C@@H](C(=O)OCCCNc1ccnc2cc(Cl)ccc12)[C@@H](NC(=O)c1ccccc1)c1ccccc1 with Plasmodium falciparum (enter value)
# output 2.20

# input Fill in the recorded log10 IC50 for this molecule, with Plasmodium falciparum as test system: C[C@@H]1CC[C@H]2[C@@H](C)C(=O)O[C@@H]3O[C@@]4(C)CC[C@@H]1[C@]32OO4
# output 1.18

# input # returns recorded log10 IC50 (system: Plasmodium falciparum) for C[C@H]1[C@@H](O)O[C@@H]2O[C@@]3(C)CC[C@H]4[C@H](C)CC[C@@H]1[C@@]24OO3 (mixture of isomers)
# output 0.48

----------
Provide the reported IC50 of each item.
Test system: Plasmodium falciparum
Assay: Antiplasmodial activity against erythrocytic stage of chloroquine-resistant Plasmodium falciparum IndoChina W2 infected in human A positive RBC after 48 hrs by [3H]hypoxanthine incorporation assay
Type: functional, organism-based
# number only, unit nM dropped from output

# input Any idea what its IC50 is? The compound is [N-]=[N+]=NCc1ccccc1Nc1ccnc2cc(Cl)ccc12
# output 220

# input Sample O=C(N[C@@H](c1ccccc1)[C@@H](O)C(=O)OCCNc1ccnc2cc(Cl)ccc12)c1ccccc1 — what was its IC50?
# output 390
